From: ChEMBL document CHEMBL4402610

# Test system: Human immunodeficiency virus 1
# experiment_summary: Antiviral activity against lopinavir resistant HIV1 harboring protease L10F/V32I/M46I/I47A/A71V/I84V mutant infected in human MT4 cells assessed as inhibition of p24 Gag production
# Type: functional, organism-based
# particulars: Human immunodeficiency virus 1, MT4
metric_name: IC50 (nM)
# value in nM; strip the unit string

CC(C)CN(C[C@@H](O)[C@H](Cc1cc(F)cc(F)c1)NC(=O)OC1C[C@@H]2CO[C@@H]3OC1C[C@H]23)S(=O)(=O)c1ccc2nc(NC3CC3)sc2c1 (stereo partly drawn); 4.3

Specify measured IC50 for "COC(=O)N[C@H](C(=O)N[C@@H](Cc1ccccc1)[C@@H](O)CN(Cc1ccc(-c2ccccn2)cc1)NC(=O)[C@@H](NC(=O)OC)C(C)(C)C)C(C)(C)C" .
430

###

# experimental_system: Protease (Human immunodeficiency virus 1, UniProt Q9YQ12)
# Sequence (Q9YQ12 whole entry): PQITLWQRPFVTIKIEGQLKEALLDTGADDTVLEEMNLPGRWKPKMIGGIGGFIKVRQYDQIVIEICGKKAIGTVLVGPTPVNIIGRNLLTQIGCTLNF
Below, each entry is listed with its recorded pKi.
Notebook: values listed as pKi are -log10 of the concentration (mol/L).

CC(C)CN(C[C@@H](O)[C@H](Cc1ccccc1)NC(=O)OC1C[C@@H]2CO[C@@H]3OC1C[C@H]23)S(=O)(=O)c1ccc2nc(NC(C)C)oc2c1 (some centres not stated); 11.22
COc1ccc(S(=O)(=O)N(CC(C)C)C[C@@H](O)[C@H](Cc2ccccc2)NC(=O)OC2C[C@@H]3CO[C@@H]4OC2C[C@H]34)cc1 (some centres not stated); 11.10
CC(C)CN(C[C@@H](O)[C@H](Cc1cccc(F)c1)NC(=O)O[C@H]1C[C@H]2CO[C@H]3OC1C[C@@H]23)S(=O)(=O)c1ccc2nc(NC3CC3)sc2c1; 10.62
CC(C)CN(C[C@@H](O)[C@H](Cc1cccc(F)c1)NC(=O)OC1C[C@@H]2CO[C@@H]3OC1C[C@H]23)S(=O)(=O)c1ccc2nc(NC3CC3)sc2c1 (some centres not stated); 11.10
CC(C)CN(C[C@@H](O)[C@H](Cc1ccccc1)NC(=O)OC1C[C@@H]2CO[C@@H]3OC1C[C@H]23)S(=O)(=O)c1ccc2nc(NC3CC3)sc2c1 (some centres not stated); 11.70
CC(C)CN(C[C@@H](O)[C@H](Cc1ccc(F)cc1)NC(=O)O[C@H]1C[C@H]2CO[C@H]3OC1C[C@@H]23)S(=O)(=O)c1ccc2nc(NC3CC3)sc2c1; 10.44
CC(C)CN(C[C@@H](O)[C@H](Cc1cc(F)cc(F)c1)NC(=O)OC1C[C@@H]2CO[C@@H]3OC1C[C@H]23)S(=O)(=O)c1ccc2nc(NC3CC3)sc2c1 (some centres not stated); 10.27
CC(C)CN(C[C@@H](O)[C@H](Cc1cc(F)cc(F)c1)NC(=O)O[C@H]1C[C@H]2CO[C@H]3OC1C[C@@H]23)S(=O)(=O)c1ccc2nc(NC3CC3)sc2c1; 11.15
CC(C)CN(C[C@@H](O)[C@H](Cc1ccccc1)NC(=O)O[C@H]1C[C@H]2CO[C@H]3OC1C[C@@H]23)S(=O)(=O)c1ccc2nc(NC3CC3)sc2c1; 10.57
CC(C)CN(C[C@@H](O)[C@H](Cc1ccccc1)NC(=O)O[C@H]1C[C@H]2CO[C@H]3OC1C[C@@H]23)S(=O)(=O)c1ccc2nc(NC(C)C)oc2c1; 10.33

Specify measured pKi for CC(C)CN(C[C@@H](O)[C@H](Cc1ccc(F)cc1)NC(=O)OC1C[C@@H]2CO[C@@H]3OC1C[C@H]23)S(=O)(=O)c1ccc2nc(NC3CC3)sc2c1 (some centres not stated) .
11.70

Specify measured pKi for "COc1ccc(S(=O)(=O)N(CC(C)C)C[C@@H](O)[C@H](Cc2ccccc2)NC(=O)O[C@H]2C[C@H]3CO[C@H]4OC2C[C@@H]34)cc1" .
10.47
